// self-splicing fitness (ln) lookup, one value per entry
- assayInfo: self-splicing fitness, log relative to wild type (ln ratio); higher = more splicing; Tetrahymena group I intron in knt gene, E. coli kanamycin selection, DiMSum; sequences stand for … in CUCUCU…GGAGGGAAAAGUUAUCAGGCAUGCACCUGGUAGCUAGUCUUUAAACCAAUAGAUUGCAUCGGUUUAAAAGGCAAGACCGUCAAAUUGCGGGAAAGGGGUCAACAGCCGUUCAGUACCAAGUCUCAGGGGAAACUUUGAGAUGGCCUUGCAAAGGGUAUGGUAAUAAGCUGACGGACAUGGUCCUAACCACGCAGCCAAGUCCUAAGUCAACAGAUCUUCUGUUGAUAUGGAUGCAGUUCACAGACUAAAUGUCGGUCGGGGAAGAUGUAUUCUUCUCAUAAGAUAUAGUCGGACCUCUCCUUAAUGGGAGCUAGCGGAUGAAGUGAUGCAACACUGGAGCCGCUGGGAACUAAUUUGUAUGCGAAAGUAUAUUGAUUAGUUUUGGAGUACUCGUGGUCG;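 further: selection with 25 µg/mL kanamycin versus none on LB agar overnight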
- measurementParameters: 37 °C
Could you respond with only the numeric value?

Reference set (4 entries):
INPUT: What does the record list as self-splicing fitness (ln) for `AGGUAGCAAUAUUACGCCAC` ?
OUTPUT: -2.98

INPUT: Now consider `UUGAAGCAAUAUUACGUGCC` .
OUTPUT: -0.402

INPUT: Now consider `GCGCAGCAAUAUUACGAAUA` .
OUTPUT: -1.02

INPUT: Now consider `CCCUAGCAAUAUUACGCGUA` .
OUTPUT: -0.911

Continuing:
INPUT: What does the record list as self-splicing fitness (ln) for `GAGGAGCAAUAUUACGCAGC` ?
OUTPUT: -1.04

INPUT: Now consider `GUCGAGCAAUAUUACGCAUU` .
OUTPUT: -0.95

INPUT: Now consider `AGAAAGCAAUAUUACGGUGC` .
OUTPUT: -2.6

INPUT: Now consider `ACAAAGCAAUAUUACGUCGC` .
OUTPUT: -2.23

INPUT: Now consider `UCACAGCAAUAUUACGUUCC` .
OUTPUT: -1.47

INPUT: Now consider `GUGAAGCAAUAUUACGUGAG` .
OUTPUT: -0.555

* * *

- assayInfo: self-splicing fitness, log relative to wild type (ln ratio); higher = more splicing; Tetrahymena group I intron in knt gene, E. coli kanamycin selection, DiMSum; sequences stand for … in CUCUCU…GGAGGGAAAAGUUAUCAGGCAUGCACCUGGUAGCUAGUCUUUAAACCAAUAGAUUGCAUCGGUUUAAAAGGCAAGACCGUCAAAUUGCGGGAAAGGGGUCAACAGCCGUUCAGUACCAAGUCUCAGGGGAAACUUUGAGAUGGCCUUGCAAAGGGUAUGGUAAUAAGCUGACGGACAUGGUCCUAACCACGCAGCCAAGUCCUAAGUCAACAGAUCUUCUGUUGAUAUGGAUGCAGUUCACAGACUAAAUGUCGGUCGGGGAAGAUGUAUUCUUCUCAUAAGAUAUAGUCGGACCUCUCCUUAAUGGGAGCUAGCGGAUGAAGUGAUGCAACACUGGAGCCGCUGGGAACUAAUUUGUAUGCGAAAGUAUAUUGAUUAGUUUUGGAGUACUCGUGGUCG
- measurementParameters: 37 °C
// self-splicing fitness (ln) lookup, one value per entry
Could you respond with only the numeric value?

Reference set (4 entries):
INPUT: What does the record list as self-splicing fitness (ln) for `AUACAGCAAUAUUACGAGGA` ?
OUTPUT: -0.911

INPUT: Now consider `GCCUAGCAAUAUUACGCACU` .
OUTPUT: 0.143

INPUT: Now consider `CCUUAGCAAUAUUACGUCAU` .
OUTPUT: -2.96

INPUT: Now consider `GAAUAGCAAUAUUACGUCAA` .
OUTPUT: -1.95

Continuing:
INPUT: What does the record list as self-splicing fitness (ln) for `ACCCAGCAAUAUUACGUUAC` ?
OUTPUT: -1.13

INPUT: Now consider `UAGGAGCAAUAUUACGGUCA` .
OUTPUT: -2.19
